System: Candida albicans
Experiment: Antifungal activity against Candida albicans IHEM 374 by microdilution method
Assay type: functional
MEASURED ENDPOINT: MIC (µM)
I only need the number, in µM, no unit after it.

Worked examples follow.
OCCCCNc1ccc2ncccc2c1    1200
CC(O)CCCNc1cnc2ccccc2c1 (configuration not stated)    1100

Prompt: Give the value of MIC reported for the following: CC(C)(O)CCCNc1cccc2ncccc12
Completion: 2000

Prompt: Give the value of MIC reported for the following: CC(C)(O)CCCNc1cccc2cccnc12
Completion: 1000

Prompt: Give the value of MIC reported for the following: OCCCCNc1cccc2cccnc12
Completion: 1200

Prompt: Give the value of MIC reported for the following: CC(O)CCCNc1ccc2ncccc2c1 (configuration not stated)
Completion: 1100

// data source = ChEMBL document CHEMBL3407490
